Data origin: ChEMBL document CHEMBL1201862

test system: MCF7; assay: NCI tumour cell line growth inhibition, 48 h
Calls of active or inactive are those of the source. Rule as the data show it: active = GI50 up to about 1.1 µM and inactive = higher.
Parameter call: string, one of active, inactive

| COMPOUND | MEASUREMENT_TARGET | ASSIGNED_CATEGORY |
| --- | --- | --- |
| NNS(=O)(=O)c1ccc(/C=C2\NC(=O)NC2=O)cc1 | MCF7 | inactive |
| COc1ccc(C2=Nn3c(nc4sc5c(c4c3=O)CCCC5)SC2)cc1 | MCF7 | inactive |
| C=CC(OC(C)=O)c1ccc(OC(C)=O)cc1 (stereo not drawn) | MCF7 | inactive |

Test call, this compound: CC[C@H]1C=CCC[C@@]2(C[C@@H]3CC[C@@H]4[C@H](C(=O)OCCCCCCCCCCCCCCCC(=O)N(CCCN)C[C@@H](O)CCN)[C@]5(CCC[C@@H](C)O5)NC(=[N+]34)N2)O1
active

Test call, this compound: CN1C(=O)c2c(c3c4ccccc4n(C4OC(CO)C(O)C(O)C4O)c3c3[nH]c4ccccc4c23)C1=O (stereo not drawn)
inactive

Test call, this compound: CC(C)[S+]1C2=C(CC(C)(C)CC2=O)[N-]c2ccccc21 (stereo not drawn)
inactive

Test call, this compound: CC(=O)NC1C(OCC(=O)NC(C)C(=O)NC(CCC(=O)NCCCCCNc2ccc([N+](=O)[O-])c3[nH]c4ccccc4c(=O)c23)C(N)=O)C(O)C(CO)OC1(C)OCc1ccccc1 (stereo not drawn)
inactive

Test call, this compound: CN1CCN(c2c(Cl)cc(Cl)c3[nH]c4ccccc4c(=O)c23)CC1
inactive

---

test system: MDA-N; test: NCI tumour cell line growth inhibition, 48 h
Calls of active or inactive are those of the source. No stated cut-off is given here; in the data, active = GI50 up to about 1.1 µM and inactive = higher.
Parameter call: string, one of active, inactive

Test call, this compound: CSc1ccc(C=C2N=C(c3ccccc3)N(c3cc(C(=O)c4ccccc4)ccc3N3C(=O)/C(=C/c4ccc(SC)cc4)N=C3c3ccccc3)C2=O)cc1
inactive

Test call, this compound: CCOC(=O)c1cnc2[nH]ccn2c1=O
inactive

Test call, this compound: OC[C@H](O)[C@@H](OCc1ccccc1)[C@H](NCc1ccccc1)c1cccs1
inactive

Test call, this compound: C[n+]1cccc2c(=O)c3ccccc3oc21
inactive

Test call, this compound: O=C(O)[C@H]1NC[C@H]2C(Br)=NO[C@@H]12
inactive

Test call, this compound: CN(C)/C=C/c1c2c(nc3ccccc13)C(=O)c1ccccc1C2=O
active

Test call, this compound: COc1ccc2nc3ccccc3c(NCCN(C)CCCl)c2c1
active

Test call, this compound: CCCC(=O)N(C)/N=N/c1ccc(C(=O)OCC)cc1
inactive

Test call, this compound: CC(C)C1C(=O)N2CCCC2C2(O)OC(NC(=O)C3C=C4c5cccc6[nH]cc(c56)CC4N(C)C3)(C(C)C)C(=O)N12 (stereo not given)
inactive

Test call, this compound: CSc1ncnc2c1ncn2CC(=O)C1CCC2C3CCC4=CC(=O)CCC4(C)C3CCC12C (stereo not given)
inactive

---

system: OVCAR-8; assay: NCI tumour cell line growth inhibition, 48 h
Active and inactive are the calls of the source. Rule as the data show it: active = GI50 up to about 1.1 µM and inactive = higher.
Parameter call: string, one of t for active, f for inactive

Use the examples below as a reference point.
| COMPOUND | ASSIGNED_CATEGORY |
| --- | --- |
| N=C(N)NS(=O)(=O)c1ccc(NC(=O)c2ccc3nc4ccccc4c(O)c3c2)cc1 | f |
| CC(=O)NC1C(OCC(=O)NC(C)C(=O)NC(CCC(=O)NCCCCCNc2ccc([N+](=O)[O-])c3[nH]c4ccccc4c(=O)c23)C(N)=O)C(O)C(CO)OC1(C)OCc1ccccc1 (stereo not given) | f |
| COc1ccc(-c2cc(-c3ccccc3)[nH]c(=S)c2C#N)cc1 | f |

Test call, this compound: COc1cc2oc(-c3ccc(O)cc3)cc(=O)c2c(OC)c1O
f

Test call, this compound: CCCCCCCCCCNC(=O)CCC(NC(=O)c1ccc(N(C)Cc2cnc3nc(N)nc(N)c3n2)cc1)C(=O)NCCCCCCCCCC (stereo not given)
f

Test call, this compound: CC#CC(O)(C(=O)OC1CCC2CCC1N2C)C1CCCC1 (stereo not given)
f

Test call, this compound: CN(c1ccccc1Cl)S(=O)(=O)c1ccc([N+](=O)[O-])cc1
f

Test call, this compound: O=C(NNC(=S)Nc1ccccc1)c1cc(-c2ccccc2)nc2ccccc12
f
